Numbers sourced from ChEMBL document CHEMBL2062483.

IC50 values recorded for Bcl-2-like protein 1 (Homo sapiens, UniProt Q07817)
METRIC_NAME: IC50

{"ENTRY_SMILES": "CN(C)CC[C@H](CSc1ccccc1)Nc1ccc(S(=O)(=O)Nc2ccc(NCCNc3cccc(-c4c(-c5ccc(Cl)cc5)cn(CC[C@H](O)CO)c4C(=O)NCCCN4CCN(C)CC4)c3)cc2)cc1[N+](=O)[O-]", "DATA_VALUE": "44.1 nM"}
{"ENTRY_SMILES": "CCc1c(-c2ccc(Cl)cc2)c(-c2cccc(N3CCN(c4ccc(NS(=O)(=O)c5ccc(N[C@H](CCN(C)C)CSc6ccccc6)c([N+](=O)[O-])c5)cc4)CC3)c2)c(C(=O)O)n1C", "DATA_VALUE": "7.5 nM"}
{"ENTRY_SMILES": "CN(C)CC[C@H](CSc1ccccc1)Nc1ccc(S(=O)(=O)Nc2ccc(N3CCN(Cc4ccccc4-c4ccc(Cl)cc4)CC3)cc2)cc1[N+](=O)[O-]", "DATA_VALUE": "88.3 nM"}

====

target: Apoptosis regulator Bcl-2 (Homo sapiens, UniProt P10415)
Sequence (P10415 whole entry): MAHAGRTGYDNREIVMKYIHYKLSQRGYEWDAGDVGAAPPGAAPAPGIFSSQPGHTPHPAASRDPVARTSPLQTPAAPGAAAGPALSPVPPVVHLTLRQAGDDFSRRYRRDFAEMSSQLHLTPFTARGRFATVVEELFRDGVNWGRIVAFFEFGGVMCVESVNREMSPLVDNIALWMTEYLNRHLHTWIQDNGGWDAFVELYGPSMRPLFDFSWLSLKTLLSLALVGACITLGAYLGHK
Recorded Ki for the following compounds

{"ENTRY_SMILES": "CN(C)CC[C@H](CSc1ccccc1)Nc1ccc(S(=O)(=O)NC(=O)c2ccc(N3CCN(c4cccc(-c5c(-c6ccc(Cl)cc6)cn(CC[C@H](O)CO)c5C(=O)NCCCN5CCN(C)CC5)c4)CC3)cc2)cc1[N+](=O)[O-]", "MODIFIER_SIGN": "=", "Ki, nM": 2}
{"ENTRY_SMILES": "CNC(=O)c1c(-c2cccc(N3CCN(c4ccc(NS(=O)(=O)c5ccc(N[C@H](CCN(C)C)CSc6ccccc6)c([N+](=O)[O-])c5)cc4)CC3)c2)c(-c2ccc(Cl)cc2)cn1C", "MODIFIER_SIGN": "=", "Ki, nM": 1.2}
{"ENTRY_SMILES": "CN(C)CC[C@H](CSc1ccccc1)Nc1ccc(S(=O)(=O)Nc2ccc(N3CCN(c4ccc(-c5c(-c6ccc(Cl)cc6)cn(CC[C@H](O)CO)c5C(=O)NCCCN5CCN(C)CC5)cc4)CC3)cc2)cc1[N+](=O)[O-]", "MODIFIER_SIGN": "=", "Ki, nM": 8.5}
{"ENTRY_SMILES": "CN(C)CC[C@H](CSc1ccccc1)Nc1ccc(S(=O)(=O)Nc2ccc(-c3cn(-c4cccc(-c5c(-c6ccc(Cl)cc6)cn(CC[C@H](O)CO)c5C(=O)NCCCN5CCN(C)CC5)c4)nn3)cc2)cc1[N+](=O)[O-]", "MODIFIER_SIGN": "<", "Ki, nM": 0.6}
{"ENTRY_SMILES": "CN(C)CC[C@H](CSc1ccccc1)Nc1ccc(S(=O)(=O)Nc2ccc(N3CCN(c4cccc(-c5cn(C)cc5-c5ccc(Cl)cc5)c4)CC3)cc2)cc1[N+](=O)[O-]", "MODIFIER_SIGN": "=", "Ki, nM": 21.1}

====

molecular target: Induced myeloid leukemia cell differentiation protein Mcl-1 (Homo sapiens, UniProt Q07820); assay: Binding affinity to N-terminus 8X His-tagged human Mcl1 expressed in Escherichia coli BL21 (DE3) cells after 2 hrs by fluorescence polarization assay
Sequence (Q07820 whole entry): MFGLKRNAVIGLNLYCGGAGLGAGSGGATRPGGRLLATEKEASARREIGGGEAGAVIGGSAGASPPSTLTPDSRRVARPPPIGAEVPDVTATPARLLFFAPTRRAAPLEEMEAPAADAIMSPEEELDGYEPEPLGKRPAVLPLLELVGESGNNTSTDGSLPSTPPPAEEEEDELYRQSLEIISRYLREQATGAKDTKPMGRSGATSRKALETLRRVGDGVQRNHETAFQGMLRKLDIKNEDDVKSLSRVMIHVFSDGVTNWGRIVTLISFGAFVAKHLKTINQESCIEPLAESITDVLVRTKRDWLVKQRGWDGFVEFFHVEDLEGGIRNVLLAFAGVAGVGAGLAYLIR
pIC50: −log10 of the molar value.

{"ENTRY_SMILES": "CN1CCN(CCCNC(=O)c2c(-c3ccccc3)c(-c3ccc(Cl)cc3)cn2CC[C@H](O)CO)CC1", "pIC50": "< 4.00"}
{"ENTRY_SMILES": "CN(C)CC[C@H](CSc1ccccc1)Nc1ccc(S(=O)(=O)Nc2ccc(N3CCN(c4cccc(-c5c(-c6ccc(Cl)cc6)cn(C)c5C(=O)O)c4)CC3)cc2)cc1[N+](=O)[O-]", "pIC50": "< 5.70"}
{"ENTRY_SMILES": "CN(C)CC[C@H](CSc1ccccc1)Nc1ccc(S(=O)(=O)Nc2ccc(N3CCN(Cc4ccccc4-c4ccc(Cl)cc4)CC3)cc2)cc1[N+](=O)[O-]", "pIC50": "< 5.00"}
{"ENTRY_SMILES": "CN(C)CC[C@H](CSc1ccccc1)Nc1ccc(S(=O)(=O)Nc2ccc(-c3cn(-c4cccc(-c5c(-c6ccc(Cl)cc6)cn(CC[C@H](O)CO)c5C(=O)NCCCN5CCN(C)CC5)c4)nn3)cc2)cc1[N+](=O)[O-]", "pIC50": "< 5.00"}
{"ENTRY_SMILES": "CN(C)CC[C@H](CSc1ccccc1)Nc1ccc(S(=O)(=O)Nc2ccccc2)cc1[N+](=O)[O-]", "pIC50": "< 4.00"}
{"ENTRY_SMILES": "CN(C)CC[C@H](CSc1ccccc1)Nc1ccc(S(=O)(=O)NC(=O)c2ccc(C#Cc3cccc(-c4c(-c5ccc(Cl)cc5)cn(CC[C@H](O)CO)c4C(=O)NCCCN4CCN(C)CC4)c3)cc2)cc1[N+](=O)[O-]", "pIC50": "< 5.00"}

====

What follows is a record of IC50 for Apoptosis regulator Bcl-2 (Homo sapiens).

{"ENTRY_SMILES": "CN(C)CC[C@H](CSc1ccccc1)Nc1ccc(S(=O)(=O)Nc2ccccc2)cc1[N+](=O)[O-]", "IC50": "> 100000 nM"}
{"ENTRY_SMILES": "CN1CCN(CCCNC(=O)c2c(-c3ccccc3)c(-c3ccc(Cl)cc3)cn2CC[C@H](O)CO)CC1", "IC50": "213000 nM"}
{"ENTRY_SMILES": "CN(C)CC[C@H](CSc1ccccc1)Nc1ccc(S(=O)(=O)Nc2ccc(N3CCN(Cc4ccccc4-c4ccc(Cl)cc4)CC3)cc2)cc1[N+](=O)[O-]", "IC50": "85.3 nM"}
{"ENTRY_SMILES": "CN(C)CC[C@H](CSc1ccccc1)Nc1ccc(S(=O)(=O)Nc2ccc(N3CCN(c4cccc(-c5c(-c6ccc(Cl)cc6)cn(C)c5C(=O)NCCCN5CCN(C)CC5)c4)CC3)cc2)cc1[N+](=O)[O-]", "IC50": "0.6 nM"}
{"ENTRY_SMILES": "CN(C)CC[C@H](CSc1ccccc1)Nc1ccc(S(N)(=O)=O)cc1[N+](=O)[O-]", "IC50": "> 100000 nM"}
{"ENTRY_SMILES": "CN(C)CC[C@H](CSc1ccccc1)Nc1ccc(S(=O)(=O)Nc2ccc(-c3cn(-c4cccc(-c5c(-c6ccc(Cl)cc6)cn(CC[C@H](O)CO)c5C(=O)NCCCN5CCN(C)CC5)c4)nn3)cc2)cc1[N+](=O)[O-]", "IC50": "1.4 nM"}
{"ENTRY_SMILES": "CN(C)CC[C@H](CSc1ccccc1)Nc1ccc(S(=O)(=O)Nc2ccc(N3CCN(c4cccc(-c5cn(C)cc5-c5ccc(Cl)cc5)c4)CC3)cc2)cc1[N+](=O)[O-]", "IC50": "82.6 nM"}

====

UniProtKB Q07817: recorded pKi for assorted molecules
pKi: −log10 of the molar value.
METRIC_NAME: pKi

{"ENTRY_SMILES": "CN(C)CC[C@H](CSc1ccccc1)Nc1ccc(S(=O)(=O)NC(=O)c2ccc(N3CCN(c4cccc(-c5c(-c6ccc(Cl)cc6)cn(CC[C@H](O)CO)c5C(=O)NCCCN5CCN(C)CC5)c4)CC3)cc2)cc1[N+](=O)[O-]", "METRIC_NAME": "pKi", "MODIFIER_SIGN": ">", "DATA_VALUE": 9.00}
{"ENTRY_SMILES": "CN(C)CC[C@H](CSc1ccccc1)Nc1ccc(S(=O)(=O)Nc2ccc(NCCNc3cccc(-c4c(-c5ccc(Cl)cc5)cn(CC[C@H](O)CO)c4C(=O)NCCCN4CCN(C)CC4)c3)cc2)cc1[N+](=O)[O-]", "METRIC_NAME": "pKi", "MODIFIER_SIGN": "=", "DATA_VALUE": 7.95}
{"ENTRY_SMILES": "CCc1c(-c2ccc(Cl)cc2)c(-c2cccc(N3CCN(c4ccc(NS(=O)(=O)c5ccc(N[C@H](CCN(C)C)CSc6ccccc6)c([N+](=O)[O-])c5)cc4)CC3)c2)c(C(=O)O)n1C", "METRIC_NAME": "pKi", "MODIFIER_SIGN": ">", "DATA_VALUE": 9.00}
{"ENTRY_SMILES": "CN(C)CC[C@H](CSc1ccccc1)Nc1ccc(S(=O)(=O)Nc2ccccc2)cc1[N+](=O)[O-]", "METRIC_NAME": "pKi", "MODIFIER_SIGN": "=", "DATA_VALUE": 3.78}
{"ENTRY_SMILES": "CCOC(=O)c1c(-c2cccc(N3CCN(c4ccc(NS(=O)(=O)c5ccc(N[C@H](CCN(C)C)CSc6ccccc6)c([N+](=O)[O-])c5)cc4)CC3)c2)c(-c2ccc(Cl)cc2)cn1C", "METRIC_NAME": "pKi", "MODIFIER_SIGN": "=", "DATA_VALUE": 8.77}
{"ENTRY_SMILES": "CN(C)CC[C@H](CSc1ccccc1)Nc1ccc(S(=O)(=O)Nc2ccc(N3CCN(c4cccc(-c5c(-c6ccc(Cl)cc6)cn(C)c5C(=O)NCCCN5CCN(C)CC5)c4)CC3)cc2)cc1[N+](=O)[O-]", "METRIC_NAME": "pKi", "MODIFIER_SIGN": ">", "DATA_VALUE": 9.00}
{"ENTRY_SMILES": "CN(C)CC[C@H](CSc1ccccc1)Nc1ccc(S(=O)(=O)Nc2ccc(C#Cc3cccc(-c4c(-c5ccc(Cl)cc5)cn(CC[C@H](O)CO)c4C(=O)NCCCN4CCN(C)CC4)c3)cc2)cc1[N+](=O)[O-]", "METRIC_NAME": "pKi", "MODIFIER_SIGN": "=", "DATA_VALUE": 8.77}
